System: Mus musculus
Procedure Text: Anticonvulsant activity in po dosed mouse assessed as blockade of supramaximal electroshock-induced […] seizure
Assay type: functional
Calls of active or inactive are those of the source.
Quantity Name: Activity

Please report the measured Activity for CCCCN1CCC/C1=N\C(=O)Nc1c(C)cccc1C
inactive

Please report the measured Activity for Cc1cccc(C)c1NC(=O)/N=C1\CC(C)(C)CN1C
inactive

---

System: Mus musculus
Procedure Text: Muscle relaxant activity in po dosed mouse assessed as increase in strychnine-induced persistant convulsive threshold
Type: functional
Calls of active or inactive are those of the source.
Your response should consist of one outcome taken from active, inactive

Which outcome was assigned to Cc1cccc(C)c1NC(=O)/N=C1\CCCN1Cc1ccccc1 in this test?
inactive

Which outcome was assigned to CC1/C(=N\C(=O)Nc2ccccc2)N(C)CC1c1ccccc1 (stereo not given) in this test?
inactive

Which outcome was assigned to Cc1cccc(C)c1NC(=O)/N=C1\CCCCCN1C in this test?
inactive

Which outcome was assigned to CN1CC(C)(C)C/C1=N\C(=O)Nc1cccc(Cl)c1 in this test?
inactive

Which outcome was assigned to CN1CCC/C1=N\C(=O)Nc1ccc(Cl)cc1 in this test?
inactive

Which outcome was assigned to CN1CCC/C1=N\C(=O)Nc1ccc(C(C)(C)C)cc1 in this test?
inactive

Which outcome was assigned to O=C(/N=C1\CCCN1Cc1ccccc1)Nc1c(Cl)cccc1Cl in this test?
inactive

Which outcome was assigned to CN1CCCCC/C1=N\C(=O)Nc1ccccc1 in this test?
inactive

Which outcome was assigned to CN1CCC/C1=N\C(=O)Nc1ccccc1Cl in this test?
active

Which outcome was assigned to CN1CCC/C1=N\C(=O)Nc1c(Cl)cc(Cl)cc1Cl in this test?
active

Others:
Which outcome was assigned to Cc1cccc(C)c1NC(=O)/N=C1\CC(c2ccccc2)CN1C (stereo not given) in this test?
inactive

Which outcome was assigned to Cc1cccc(C)c1NC(=O)/N=C1\CCCCCN1 in this test?
inactive

---

Test system: Mus musculus
Procedure Text: Sedative-hypnotic activity in po dosed mouse assessed as increase in pentylenetetrazol-induced persistent-convulsive threshold
Format: functional, organism-based
The source made the active and inactive calls.
Your response should consist of one outcome taken from active, inactive

Use the examples below as a reference point.
Which outcome was assigned to Cc1cccc(C)c1NC(=O)/N=C1\CCCCCN1C in this test?
inactive

Which outcome was assigned to CN1CCCCC/C1=N\C(=O)Nc1ccccc1 in this test?
inactive

Which outcome was assigned to Cc1cccc(C)c1NC(=O)/N=C1\CCC(C)N1C (stereo unspecified) in this test?
inactive

Which outcome was assigned to Cc1ccccc1NC(=O)/N=C1\CCCN1C in this test?
active

Which outcome was assigned to CN1CCC/C1=N\C(=O)Nc1ccccc1C(F)(F)F in this test?
active

Others:
Which outcome was assigned to CN1CCC/C1=N\C(=S)Nc1ccc([N+](=O)[O-])cc1 in this test?
inactive

Which outcome was assigned to CN1CCCC/C1=N\C(=O)Nc1ccc(C(F)(F)F)cc1 in this test?
inactive

Which outcome was assigned to CN1CC(c2ccccc2)C/C1=N\C(=O)Nc1ccccc1 (stereo unspecified) in this test?
inactive

Which outcome was assigned to CN1CCCC/C1=N\C(=O)Nc1ccccc1 in this test?
inactive

Which outcome was assigned to O=C(/N=C1\CCCCCN1)Nc1ccccc1 in this test?
inactive

Which outcome was assigned to CN1CCC/C1=N\C(=O)Nc1ccccc1Cl in this test?
active

Which outcome was assigned to CN1CC(c2ccccc2)C/C1=N\C(=O)Nc1cccc(Cl)c1 (stereo unspecified) in this test?
inactive

Which outcome was assigned to Cc1cccc(C)c1NC(=O)/N=C1\CCCCCN1 in this test?
inactive

Which outcome was assigned to CN1CCCCC/C1=N\C(=O)Nc1cccc(Cl)c1 in this test?
inactive

Which outcome was assigned to CN1CC(C)(C)C/C1=N\C(=O)Nc1c(Cl)cccc1Cl in this test?
inactive

Which outcome was assigned to CN1CCC/C1=N\C(=S)Nc1ccccc1 in this test?
inactive

---

Test system: Mus musculus
Procedure Text: Sedative-hypnotic activity in po dosed mouse assessed as increase in pentylenetetrazol-induced persistent-convulsive threshold
Assay type: functional, organism-based
Activity calls are given as the source filed them.
Your response should consist of one outcome taken from T = active, F = inactive

Use the examples below as a reference point.
Which outcome was assigned to CCOc1ccccc1NC(=O)/N=C1\CCCN1C in this test?
T

Which outcome was assigned to CN1CCCCC/C1=N\C(=O)Nc1c(Cl)cccc1Cl in this test?
F

Which outcome was assigned to Cc1cccc(C)c1NC(=O)/N=C1\C(C)C(c2ccccc2)CN1C (stereo not given) in this test?
F

Which outcome was assigned to CN1CC(c2ccccc2)C/C1=N\C(=O)Nc1c(Cl)cccc1Cl (stereo not given) in this test?
F

Here is the next item to consider.
Which outcome was assigned to CCCCN1CCC/C1=N\C(=O)Nc1cccc(Cl)c1 in this test?
F

---

Test system: Mus musculus
Procedure Text: Hypnotic activity in po dosed mouse assessed as increase in pentylenetetrazol-induced persistent-convulsive threshold
Assay type: functional, organism-based
Calls of active or inactive are those of the source.
Your response should consist of one outcome taken from active, inactive

Which outcome was assigned to CCCCN1CCC/C1=N\C(=O)Nc1c(C)cccc1C in this test?
inactive

Which outcome was assigned to CN1CCCCC/C1=N\C(=O)Nc1cccc(Cl)c1 in this test?
inactive

Which outcome was assigned to O=C(/N=C1\CCCN1Cc1ccccc1)Nc1cccc(C(F)(F)F)c1 in this test?
inactive

Which outcome was assigned to CN1CC(C)(C)C/C1=N\C(=O)Nc1c(Cl)cccc1Cl in this test?
inactive

Others:
Which outcome was assigned to CN1CC(c2ccccc2)C/C1=N\C(=O)Nc1c(Cl)cccc1Cl (stereo not given) in this test?
inactive

Which outcome was assigned to CC(C)c1ccccc1NC(=O)/N=C1\CCCN1C in this test?
active

---

Test system: Mus musculus
Procedure Text: Muscle relaxant activity in po dosed mouse assessed as increase in strychnine-induced persistant convulsive threshold
Format: functional
Calls of active or inactive are those of the source.
Quantity Name: Activity

Please report the measured Activity for CN1CCC/C1=N\C(=O)Nc1ccc(Br)cc1
inactive

Please report the measured Activity for CN1CCC/C1=N\C(=O)Nc1ccc(OCc2ccccc2)cc1
inactive

---

Tested on: Mus musculus
Procedure Text: Hypnotic activity in po dosed mouse assessed as increase in pentylenetetrazol-induced persistent-convulsive threshold
Format: functional, organism-based
Activity calls are given as the source filed them.
Your response should consist of one outcome taken from true (1) (active), false (0) (inactive)

Which outcome was assigned to Cc1cccc(C)c1NC(=O)/N=C1\CCCCCN1 in this test?
false (0)

Which outcome was assigned to Cc1ccccc1NC(=O)/N=C1\CCCN1C in this test?
true (1)

Others:
Which outcome was assigned to CN1CCCC/C1=N\C(=O)Nc1ccc(C(F)(F)F)cc1 in this test?
false (0)

Which outcome was assigned to Cc1cccc(C)c1NC(=O)/N=C1\CCC(C)N1C (centres undefined) in this test?
false (0)

Which outcome was assigned to CN1CCCC/C1=N\C(=O)Nc1ccccc1 in this test?
false (0)
